Hey, just so you know, these numbers are from patent US20250289814A1.

test: Caco2 (A-B/B-A) permeability; type: in vitro ADME; conditions: human, Caco-2, pH 7.4, PappB-A/PappA-B; read-out: Caco2 efflux ratio (ER)
Exercise: for every item that follows, state its recorded efflux ratio at 120 min, 5 μM.

Recorded efflux ratio at 120 min, 5 μM, per entry:
CCc1nc2ccc(C(C)N3CC(Oc4ccc(C(=O)NC)nc4F)C3)c(F)c2[nH]c1=O (stereo not shown); 1.5
CCc1cc2ncc(CN3CC4CCN(c5ccc(C(=O)NC)nc5)C4C3)cc2[nH]c1=O (stereo not shown); 7.71
CCc1nc2ccc(CN3CC[C@@H](Oc4ccc(C(=O)NC)nc4)C3)cc2[nH]c1=O; 5.03

Problem: Recall and state the measured efflux ratio at 120 min, 5 μM for CCc1cc2ncc(CN3CCC(Nc4ccc(C(=O)NC)nc4)C3)cc2[nH]c1=O (stereo not shown) .
Result: 39.1
